- experimental.protocol: Effect of concentration on the stability of the solution (purity over time)
- run.parameters: 0.01 wt %; in water at 25° C.
Reported Purity at Day 3 values for the following compounds.
Kindly provide the numeric value in % only, without the unit symbol.

query: Record request: Purity at Day 3 value, item "CCN(CC)CCOC(=O)CCc1ccc2cc(OC)ccc2c1.Cl"
result: 84.7

---

# reported Purity(%) at day 0; entries follow
- experimental.protocol: Effect of temperature (and pH) on the stability of the solution (purity)
- Type: physicochemical
- run.parameters: 7% solution in water, pH 8.0, day 0
Unit % implied. Number only.

The following compounds have reported results that may help.
> print(dat)
                                   compound  unit.spec  measured.number
1  CCN(CC)CCOC(=O)COC(=O)Cc1c(C)n(C(=O)c2ccc(Cl)cc2)c2ccc(OC)cc12.Cl          %             97.7
2  CCN(CC)CCOC(=O)Cc1c(C)n(C(=O)c2ccc(Cl)cc2)c2ccc(OC)cc12.Cl          %             98.0
3  CCN(CC)CCOC(=O)Cc1ccc(C(=O)c2ccc(C)cc2)n1C.Cl          %             97.1
4  CCN(CC)CCOC(=O)C(C)c1ccc2oc(-c3ccc(Cl)cc3)nc2c1.Cl (stereo not drawn)          %             97.7
5    CCN(CC)CCOC(=O)CCc1ccc2cc(OC)ccc2c1.Cl          %             97.7
6  CCN(CC)CCOC(=O)c1cc(-c2ccc(F)cc2F)ccc1OC(C)=O.Cl          %             99.1

query: // query Purity(%) at day 0 value for entry CCN(CC)CCOC(=O)CC1=C(C)C(=Cc2ccc([S+](C)[O-])cc2)c2ccc(F)cc21.Cl (stereo not drawn)
result: 96.9

query: Consider the compound "CCN(CC)CCOC(=O)CCc1nc(-c2ccccc2)c(-c2ccccc2)o1.Cl" and give its measured Purity(%) at day 0.
result: 98.0

query: Item "CCN(CC)CCOC(=O)COc1nn(Cc2ccccc2)c2ccccc12.Cl" has what recorded Purity(%) at day 0?
result: 97.4

---

- experimental.protocol: Effect of temperature (and pH) on the stability of the solution (purity)
- Format: physicochemical
- run.parameters: 7% solution in water, pH 6.0, day 0
reported.property: Purity(%) at day 0
State the answer as a number, implicitly in %.

The examples below pair each entry with its known result.
> print(dat)
                                   molecule   reported.property  measured.number
1  CCN(CC)CCOC(=O)COC(=O)Cc1c(C)n(C(=O)c2ccc(Cl)cc2)c2ccc(OC)cc12.Cl  Purity(%) at day 0             98.4
2    CCN(CC)CCOC(=O)CCc1ccc2cc(OC)ccc2c1.Cl  Purity(%) at day 0             98.2
3  CCN(CC)CCOC(=O)C(C)c1ccc2oc(-c3ccc(Cl)cc3)nc2c1.Cl (stereo not drawn)  Purity(%) at day 0             98.2
4  CCN(CC)CCOC(=O)Cc1c(C)n(C(=O)c2ccc(Cl)cc2)c2ccc(OC)cc12.Cl  Purity(%) at day 0             98.5
5  CCN(CC)CCOC(=O)CCc1nc(-c2ccccc2)c(-c2ccccc2)o1.Cl  Purity(%) at day 0             98.4
6  CCN(CC)CCOC(=O)CC1=C(C)C(=Cc2ccc([S+](C)[O-])cc2)c2ccc(F)cc21.Cl (stereo not drawn)  Purity(%) at day 0             97.5
7  CCN(CC)CCOC(=O)COc1nn(Cc2ccccc2)c2ccccc12.Cl  Purity(%) at day 0             97.6
8  CCN(CC)CCOC(=O)c1cc(-c2ccc(F)cc2F)ccc1OC(C)=O.Cl  Purity(%) at day 0             99.1

Now for the molecule whose Purity(%) at day 0 we want.
query: Given the molecule "CCN(CC)CCOC(=O)Cc1ccc(C(=O)c2ccc(C)cc2)n1C.Cl" , what is its reported Purity(%) at day 0?
result: 97.6
